Recorded residual activity, one value per entry.
tested_on: TSSK2 (human) (UniProt Q96PF2)
Sequence (Q96PF2 whole entry, looked up): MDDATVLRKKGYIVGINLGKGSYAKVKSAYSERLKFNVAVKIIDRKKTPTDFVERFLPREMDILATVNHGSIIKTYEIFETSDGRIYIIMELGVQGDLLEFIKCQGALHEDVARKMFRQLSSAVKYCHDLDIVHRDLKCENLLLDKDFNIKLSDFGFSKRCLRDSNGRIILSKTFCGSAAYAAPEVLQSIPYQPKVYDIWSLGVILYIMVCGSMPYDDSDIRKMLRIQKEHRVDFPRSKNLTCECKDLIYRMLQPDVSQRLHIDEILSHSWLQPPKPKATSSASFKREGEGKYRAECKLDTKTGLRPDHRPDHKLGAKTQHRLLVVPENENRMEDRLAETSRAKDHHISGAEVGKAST
protocol_summary: radiometric filter-binding kinase assay, Kinase HotSpot
condition_label: compound 0.5 µM; ATP 10 µM
experimental_readout: residual activity (%)

[[record]]
compound = "CC(C)[C@H](CO)Nc1nc(Nc2cccc(Cl)c2)c2ncn(C(C)C)c2n1"
endpoint_unit = "%"
recorded_result = 97.5

[[record]]
compound = "COc1cc2ncnc(Nc3ccc(F)c(Cl)c3)c2cc1OCCCN1CCOCC1"
endpoint_unit = "%"
recorded_result = 91.5

[[record]]
compound = "Nc1nc(Nc2ccc(S(N)(=O)=O)cc2)nn1C(=O)c1c(F)cccc1F"
endpoint_unit = "%"
recorded_result = 103

[[record]]
compound = "Nc1n[nH]c2nnc(-c3c(-c4ccccc4)nn4ccccc34)cc12"
endpoint_unit = "%"
recorded_result = 104

[[record]]
compound = "CC(C)(C)c1nc2c3ccc(F)cc3c3c(=O)[nH]ccc3c2[nH]1"
endpoint_unit = "%"
recorded_result = 92.5

[[record]]
compound = "CCN1/C(=C/C(C)=O)Sc2ccc(OC)cc21"
endpoint_unit = "%"
recorded_result = 106

[[record]]
compound = "CCCNC(=O)Nc1ccc(Oc2ncnc3cc(OC)c(OC)cc23)cc1Cl"
endpoint_unit = "%"
recorded_result = 98.7

[[record]]
compound = "O=C(NC(NC(=S)Nc1ccc(F)c([N+](=O)[O-])c1)C(Cl)(Cl)Cl)C(c1ccccc1)c1ccccc1 (stereo unspecified)"
endpoint_unit = "%"
recorded_result = 92.7

[[record]]
compound = "NC(=O)c1ccc(N(C(N)=O)c2c(F)cccc2F)nc1-c1ccc(F)cc1F"
endpoint_unit = "%"
recorded_result = 88.6

[[record]]
compound = "CC(C)n1cnc2c(Nc3cccc(Cl)c3)nc(NCCO)nc21"
endpoint_unit = "%"
recorded_result = 107

[[record]]
compound = "O=c1cc(N2CCNCC2)oc2c(-c3ccccc3)cccc12"
endpoint_unit = "%"
recorded_result = 101

[[record]]
compound = "C#Cc1cccc(Nc2ncnc3cc(OCCOC)c(OCCOC)cc23)c1"
endpoint_unit = "%"
recorded_result = 87.6

[[record]]
compound = "COc1cc2nccc(Oc3ccc(NC(=S)NC(=O)c4ccccc4C)cc3)c2cc1OC"
endpoint_unit = "%"
recorded_result = 86.7

[[record]]
compound = "Nc1nc(Nc2ccc(S(N)(=O)=O)cc2)nn1C(=S)Nc1c(F)cccc1F"
endpoint_unit = "%"
recorded_result = 91.3

[[record]]
compound = "Cc1ccc(NC(=O)c2ccc(CN3CCN(C)CC3)cc2)cc1Nc1nc(-c2cccnc2)cs1"
endpoint_unit = "%"
recorded_result = 102

[[record]]
compound = "CS(=O)c1ccc(-c2nc(-c3ccc(F)cc3)c(-c3ccncc3)[nH]2)cc1 (stereo unspecified)"
endpoint_unit = "%"
recorded_result = 95.7

[[record]]
compound = "Clc1ccc(Nc2nnc(Cc3ccncc3)c3ccccc23)cc1"
endpoint_unit = "%"
recorded_result = 82.8

[[record]]
compound = "O=c1cc(-c2cccc3c2Sc2ccccc2S3)oc(N2CCOCC2)c1"
endpoint_unit = "%"
recorded_result = 97.7

[[record]]
compound = "O=C1Nc2ccccc2/C1=C\\c1c(Cl)[nH]c2ccccc12"
endpoint_unit = "%"
recorded_result = 113

[[record]]
compound = "Oc1ccc(-c2nc(-c3ccc(F)cc3)c(-c3ccncc3)[nH]2)cc1"
endpoint_unit = "%"
recorded_result = 93.1

[[record]]
compound = "O=C1Cc2c([nH]c3ccc([N+](=O)[O-])cc23)-c2ccccc2N1"
endpoint_unit = "%"
recorded_result = 88.3


These data points were gathered from the kinase profiling compilation of Christmann-Franck et al. (2016).
